measurement_description: Human trial: blood serum levels of quercetin after ingestion, HPLC-UV
Assay type: in vivo
measurement_conditions: human subject, 80 mg quercetin oral, time 225 min
attribute_measured: concentration at 225 min

{"smiles_input": "O=c1c(O)c(-c2ccc(O)c(O)c2)oc2cc(O)cc(O)c12", "obs_value": "0 ng/mL"}

---

measurement_description: Human trial: blood serum levels of quercetin after ingestion, HPLC-UV
Assay type: in vivo
measurement_conditions: human subject, 80 mg quercetin oral, time 15 min
Procedure: The concentration of quercetin in the blood of a human subject was measured over four hours following ingestion of: • (a) 80 mg quercetin and 200 ml filtered water, • (b) 80 mg quercetin and 200 ml grapefruit extract. […] Serum samples were taken from the subject at 15 minute intervals. The samples were extracted into ethyl acetate and the concentration of quercetin determined using HPLC with UV detection at 315 nm. […]

{"smiles_input": "O=c1c(O)c(-c2ccc(O)c(O)c2)oc2cc(O)cc(O)c12", "unit_annotation": "ng/mL", "concentration at 15 min": 1}

---

measurement_description: Human trial: blood serum levels of quercetin after ingestion, HPLC-UV
Type: in vivo
measurement_conditions: human subject, 80 mg quercetin oral, time 240 min
attribute_measured: concentration at 240 min (ng/mL)

{"compound": "O=c1c(O)c(-c2ccc(O)c(O)c2)oc2cc(O)cc(O)c12 [Quercetin]", "unit_annotation": "ng/mL", "obs_value": 0}

---

measurement_description: Human trial: blood serum levels of quercetin after ingestion, HPLC-UV
Assay type: in vivo
measurement_conditions: human subject, 80 mg quercetin oral, time 210 min

{"compound": "O=c1c(O)c(-c2ccc(O)c(O)c2)oc2cc(O)cc(O)c12 [Quercetin]", "concentration at 210 min, ng/mL": 0}

---

measurement_description: Human trial: blood serum levels of quercetin after ingestion, HPLC-UV
Format: in vivo
measurement_conditions: human subject, 80 mg quercetin oral, time 75 min

{"compound": "O=c1c(O)c(-c2ccc(O)c(O)c2)oc2cc(O)cc(O)c12 [Quercetin]", "concentration at 75 min / ng/mL": 1}

---

measurement_description: Human trial: blood serum levels of quercetin after ingestion, HPLC-UV
Assay type: in vivo
measurement_conditions: human subject, 80 mg quercetin oral, time 45 min
attribute_measured: concentration at 45 min (ng/mL)

{"smiles_input": "O=c1c(O)c(-c2ccc(O)c(O)c2)oc2cc(O)cc(O)c12", "unit_annotation": "ng/mL", "obs_value": 3.8}

---

measurement_description: Human trial: blood serum levels of quercetin after ingestion, HPLC-UV
Type: in vivo
measurement_conditions: human subject, 80 mg quercetin oral, time 105 min

{"smiles_input": "O=c1c(O)c(-c2ccc(O)c(O)c2)oc2cc(O)cc(O)c12", "concentration at 105 min [ng/mL]": 0}

All values here come from patent US20230106523A1.
